Field: Burkin Assay in Myoblasts, value relative to DMSO. Provide a value for each of the compounds that follow.
Tested on: α7 integrin (LacZ reporter in α7βgal+/− myoblasts)
METHOD_NOTES: Myoblast α7+/LacZ integrin FDG assay (Burkin assay in myoblasts, 96-well)
Format: cell-based, mouse
STUDY_CONDITIONS: 5 uM; α7+/LacZ myoblasts, 96-well
Reply with the value as a number alone.

Task: Supply Burkin Assay in Myoblasts, value relative to DMSO value. Item: Cc1cccc(OCc2nc(C#N)c(N3CCCC3)o2)c1 [MLS000332693-01]
Result: 1.068

Task: Report measured Burkin Assay in Myoblasts, value relative to DMSO; entry is COCCN1C=C(C(=O)OC)C(c2ccccc2Cl)C(C(=O)OC)=C1 [MLS000718886-01]
Result: 1.087

Task: Please indicate Burkin Assay in Myoblasts, value relative to DMSO recorded for O=S(=O)(NCC(c1ccco1)N1CCOCC1)c1ccc(Cl)cc1 (stereo not drawn) [MLS000724709-01]
Result: 0.7389

Task: Annotate the compound OC1(c2ccccc2)C/C(=N\n2cnnc2)C=C1c1ccccc1 (stereo not drawn) [MLS000081838-01] with its measured Burkin Assay in Myoblasts, value relative to DMSO.
Result: 0.9611

Task: Item Cc1nnc(NC(=O)CSc2nnc(CCNC(=O)c3ccccc3F)n2C)s1 [MLS001217045-01] : provide Burkin Assay in Myoblasts, value relative to DMSO
Result: 1.087

Task: Entry Cc1cc(NC(=O)CCC(=O)N(Cc2cccnc2)C(C(=O)NC(C)(C)C)c2ccccc2Cl)no1 (stereo not drawn) [MLS001220803-01] needs its Burkin Assay in Myoblasts, value relative to DMSO filled in; supply it.
Result: 0.8878

Task: Dear colleague, please send me the reported Burkin Assay in Myoblasts, value relative to DMSO for Cc1cc(C)cc(-n2nnc(C(=O)NCc3ccccc3Cl)c2N)c1 [MLS000094770-01] when you can.
Result: 0.9491

Task: Find the measured Burkin Assay in Myoblasts, value relative to DMSO of O=C(N/N=C/c1cn[nH]c1-c1ccc(F)cc1)c1ccncc1 [MLS000698686-01] and report it.
Result: 1.054

Task: // fetch Burkin Assay in Myoblasts, value relative to DMSO given entry O=c1[nH]c(C2CCCN(S(=O)(=O)c3ccccc3)C2)nc2c1nnn2Cc1cccc(Cl)c1 (stereo not drawn) [MLS001217286-01]
Result: 0.7671

Task: Write down Burkin Assay in Myoblasts, value relative to DMSO measured for item COc1ccc(C(=O)O/N=C(\N)c2cccc(C)c2)cc1OC [MLS001165323-01]
Result: 0.8821

Task: # return recorded Burkin Assay in Myoblasts, value relative to DMSO for entry CCS(=O)(=O)N1CCCC(C(=O)c2ccc(OC)cc2C)C1 (stereo not drawn) [MLS000693747-01]
Result: 1.0596

Task: Indicate the recorded Burkin Assay in Myoblasts, value relative to DMSO value for this compound: CN(C)S(=O)(=O)c1ccc(C(=O)Nc2nc3ccccc3[nH]2)cc1 [MLS000774940-01]
Result: 1.095

Task: Fill in reported Burkin Assay in Myoblasts, value relative to DMSO for this entry: CCOc1ccc(S(=O)(=O)NCCC(=O)NCC(c2cccs2)N2CCOCC2)cc1 (stereo not drawn) [MLS001080869-01]
Result: 1.147

Task: Read the entry COc1cccc(N2C(=O)CC(N3CCc4ccccc4C3)C2=O)c1 (stereo not drawn) [MLS000769322-01] and write its reported Burkin Assay in Myoblasts, value relative to DMSO.
Result: 0.9653

Task: Give the measured Burkin Assay in Myoblasts, value relative to DMSO for COc1ccc(S(=O)(=O)N2CCN(C(=O)C3CCC3)CC2)cc1 [MLS001139515-01]
Result: 1.053

Task: Give the value of Burkin Assay in Myoblasts, value relative to DMSO reported for the following: CC(C)N(CCO)C(=O)CCc1nnc(CCCc2ccccc2)o1 [MLS000733703-01]
Result: 0.8919

Task: Return reported Burkin Assay in Myoblasts, value relative to DMSO. Input compound: Cc1ccc(N(CCC(=O)O)S(=O)(=O)c2cccc(C(F)(F)F)c2)cc1 [MLS000775793-01]
Result: 1.109

Task: Fill in reported Burkin Assay in Myoblasts, value relative to DMSO for this entry: COc1cc(Cl)cc(CN2CCC(CCC(=O)NC3CC3)CC2)c1OC [MLS001162872-01]
Result: 0.9025
